Provenance of the data: the supplement of paper PMC4862054

Overview of recorded normalised viability for various compounds
- System: MDA-MB-231
- Assay summary: normalised viability (% of control), CellTiter-Blue; higher = more viable cells (about 100 = DMSO control)
- Condition summary: 1000 nM; incubation time: 72 h
Provide only the numeric value, understood in %.

Compound | Assayed target | Measurement units | normalised viability
O=C(O)CC[C@H]1CC[C@@](c2cc(F)ccc2F)(S(=O)(=O)c2ccc(Cl)cc2)CC1 [MK-0752] | MDA-MB-231 | % | 89.7
C[C@@H](C(=O)O)c1ccc(-c2ccccc2)c(F)c1 [Tarenflurbil] | MDA-MB-231 | % | 88.6
CC(C)C(=O)Nc1ccc([N+](=O)[O-])c(C(F)(F)F)c1 [Flutamide] | MDA-MB-231 | % | 99.5
CN1CCN(c2nc(C3=C(c4c[nH]c5ccccc45)C(=O)NC3=O)c3ccccc3n2)CC1 [Sotrastaurin] | MDA-MB-231 | % | 101

Req: Param readout= normalised viability; system= MDA-MB-231; entry= CC[C@@H]1C(=O)N(C)c2cnc(Nc3ccc(C(=O)N[C@H]4CC[C@H](N5CCN(CC6CC6)CC5)CC4)cc3OC)nc2N1C(C)C [Volasertib] ; returns value.
Resp: 45.9
